- Tested on: RIVA
- experimental-details: growth inhibition by drug plus 177Lu-lilotomab satetraxetan (1 - RLU/untreated control) (fraction); higher = stronger inhibition
- run-conditions: 100 nM; time (day): 5; 177Lu-lilotomab satetraxetan 0.5 ug/ml
Structures can show the parent of a compound that is named as a salt.
measurement-kind: growth inhibition by drug plus 177Lu-lilotomab satetraxetan
// no unit string in output, number only

Form field: reported growth inhibition by drug plus 177Lu-lilotomab satetraxetan of `O=C(O)Cc1cccc(OCCCN(Cc2cccc(C(F)(F)F)c2Cl)CC(c2ccccc2)c2ccccc2)c1`
0.874

Look up growth inhibition by drug plus 177Lu-lilotomab satetraxetan for this molecule: `O=C(NC1CCNCC1)c1n[nH]cc1NC(=O)c1c(Cl)cccc1Cl`
0.566

Returns the measured growth inhibition by drug plus 177Lu-lilotomab satetraxetan for the input molecule. Input: `CC(C)CC(=O)Nc1n[nH]c2c1CN(C(=O)C1CCN(C)CC1)C2(C)C`
0.465

Consider the molecule shown here: `Cn1cnc(N)c2ncnc1-2` What is its recorded growth inhibition by drug plus 177Lu-lilotomab satetraxetan?
0.57

Looking for the measured growth inhibition by drug plus 177Lu-lilotomab satetraxetan of `COc1cc(C(=O)NC(=S)Nc2cccc(NC(=O)c3ccccc3)c2)cc(OC)c1OC` , can you help?
0.588

Look up growth inhibition by drug plus 177Lu-lilotomab satetraxetan: CCCC(CCC)C(=O)O [Valproic acid sodium salt (Sodium valproate)]
0.543
